Exercise: for every item that follows, state its recorded pIC50.
# Study system: Met kinase domain (GST fusion protein) (Homo sapiens, UniProt P08581)
# Construct: Purified GST fusion protein containing the Met kinase domain
# Sequence (P08581 1078-1345 limits assumed): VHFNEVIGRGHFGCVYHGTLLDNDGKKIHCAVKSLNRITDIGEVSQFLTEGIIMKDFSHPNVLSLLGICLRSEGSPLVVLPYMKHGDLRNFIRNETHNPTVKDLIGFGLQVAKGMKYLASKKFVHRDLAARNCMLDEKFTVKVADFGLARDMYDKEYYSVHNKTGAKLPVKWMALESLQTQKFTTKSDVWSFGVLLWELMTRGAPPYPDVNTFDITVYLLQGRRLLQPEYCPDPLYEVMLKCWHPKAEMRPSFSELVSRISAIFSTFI
# Experiment notes: Met transphosphorylation assay (ELISA, poly(glu-tyr) substrate);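 note: Cell-free ELISA with plate-bound poly(Glu:Tyr 4:1) phosphorylated by GST-fused Met kinase domain plus ATP and Mn2+, phosphotyrosine detected by anti-phosphotyrosine antibody with HRP and ABTS read-out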
# Type: biochemical
# Protocol conditions: read-out: Met IC50
Reminder that pIC50 means the negative base-10 logarithm of the concentration expressed in mol/L.

Input: Report measured pIC50 on Met kinase domain (GST fusion protein) (Homo sapiens, UniProt P08581); entry: Nc1ncc(-c2cccc(OCCN3CCOCC3)c2)cc1OCc1c(Cl)cccc1Cl [Example I-3]
Output: 6.23

Input: Report measured pIC50 on Met kinase domain (GST fusion protein) (Homo sapiens, UniProt P08581); entry: CC(Oc1nc(-c2ccc(C(=O)NCCN3CCCC3)cc2)cnc1N)c1c(Cl)cccc1Cl (stereo not drawn) [II-166]
Output: 6.96

Input: Report measured pIC50 on Met kinase domain (GST fusion protein) (Homo sapiens, UniProt P08581); entry: CC(Oc1nc(-c2ccc(C(=O)NC[C@H](O)CN3CCCC3)cc2)cnc1N)c1c(Cl)ccc(F)c1Cl (stereo partly drawn) [II-148]
Output: 6.92

Input: Report measured pIC50 on Met kinase domain (GST fusion protein) (Homo sapiens, UniProt P08581); entry: CC(Oc1nc(-c2cccc(C(=O)N3CCN(C)CC3)n2)cnc1N)c1c(Cl)ccc(F)c1Cl (stereo not drawn) [II-204]
Output: 6.66

Input: Report measured pIC50 on Met kinase domain (GST fusion protein) (Homo sapiens, UniProt P08581); entry: CC(Oc1nc(-c2ccc(C(=O)N3CCC(N4CCCC4)CC3)cc2)cnc1N)c1c(Cl)cccc1Cl (stereo not drawn) [II-157]
Output: 6.80

Input: Report measured pIC50 on Met kinase domain (GST fusion protein) (Homo sapiens, UniProt P08581); entry: Nc1ncc(-c2ccc(C(=O)N3CC[C@H](N)C3)cc2)cc1OCc1c(F)cccc1Cl [Example I-145]
Output: 6.20

Input: Report measured pIC50 on Met kinase domain (GST fusion protein) (Homo sapiens, UniProt P08581); entry: CC(Oc1nc(-c2ccc(C(=O)O)cc2)cnc1N)c1c(Cl)ccc(F)c1Cl (stereo not drawn) [II-145]
Output: 5.81

Input: Report measured pIC50 on Met kinase domain (GST fusion protein) (Homo sapiens, UniProt P08581); entry: Nc1ncc(-c2ccccc2F)cc1OCc1c(Cl)cccc1Cl [Example I-10]
Output: 5.22

Input: Report measured pIC50 on Met kinase domain (GST fusion protein) (Homo sapiens, UniProt P08581); entry: Nc1ncc(-c2ccc(CO)cc2)cc1OCc1c(Cl)cccc1Cl [Example I-27]
Output: 5.60

Input: Report measured pIC50 on Met kinase domain (GST fusion protein) (Homo sapiens, UniProt P08581); entry: Nc1ccc(-c2cnc(N)c(OCc3c(Cl)cccc3Cl)n2)cc1 [II-5]
Output: 6.03

Input: Report measured pIC50 on Met kinase domain (GST fusion protein) (Homo sapiens, UniProt P08581); entry: Nc1ncc(-c2ccc3[nH]cc(CN4CCCCC4)c3c2)cc1OCc1c(Cl)cccc1Cl [Example I-62]
Output: 5.85

Input: Report measured pIC50 on Met kinase domain (GST fusion protein) (Homo sapiens, UniProt P08581); entry: Nc1ncc(-c2ccc(C(=O)N3CCC(CCO)CC3)cc2)cc1OCc1c(Cl)cccc1Cl [Example I-42]
Output: 6.25

Input: Report measured pIC50 on Met kinase domain (GST fusion protein) (Homo sapiens, UniProt P08581); entry: CC(Oc1nc(-c2ccc(C(=O)N3CCN(C)CC3)cc2)cnc1N)c1c(F)ccc(F)c1Cl (stereo not drawn) [II-110]
Output: 6.80

Input: Report measured pIC50 on Met kinase domain (GST fusion protein) (Homo sapiens, UniProt P08581); entry: CC(C)(C)OC(=O)N[C@@H]1CCN(Cc2c[nH]c3ccc(-c4cnc(N)c(OCc5c(Cl)cccc5Cl)c4)cc23)C1 [Example I-65]
Output: 5.20

Input: Report measured pIC50 on Met kinase domain (GST fusion protein) (Homo sapiens, UniProt P08581); entry: Nc1ncc(-c2ccc(C(=O)N3CCN(C4CC4)CC3)cc2)cc1OCc1c(Cl)cccc1Cl [Example I-48]
Output: 5.78

Input: Report measured pIC50 on Met kinase domain (GST fusion protein) (Homo sapiens, UniProt P08581); entry: Nc1ncc(-c2ccc(F)cc2)cc1OCc1c(Cl)cccc1Cl [Example I-8]
Output: 5.10

Input: Report measured pIC50 on Met kinase domain (GST fusion protein) (Homo sapiens, UniProt P08581); entry: CC(Oc1nc(-c2ccc(NC(=O)NC3CCN(C)CC3)cc2)cnc1N)c1c(F)ccc(F)c1Cl (stereo not drawn) [II-188]
Output: 7.27

Input: Report measured pIC50 on Met kinase domain (GST fusion protein) (Homo sapiens, UniProt P08581); entry: Nc1ncc(-c2ccc(O)cc2)cc1OCc1ccc(F)cc1Cl [Example I-129]
Output: 4.72

Input: Report measured pIC50 on Met kinase domain (GST fusion protein) (Homo sapiens, UniProt P08581); entry: Nc1ncc(-c2ccc(C(=O)N3CCC[C@H]3CN3CCCC3)cc2)nc1OCc1cccc(F)c1C(F)(F)F [II-129]
Output: 7.28

Input: Report measured pIC50 on Met kinase domain (GST fusion protein) (Homo sapiens, UniProt P08581); entry: Nc1ncc(-c2ccc3[nH]cc(CN4CCOCC4)c3c2)nc1OCc1c(F)ccc(F)c1Cl [II-68]
Output: 5.94

Input: Report measured pIC50 on Met kinase domain (GST fusion protein) (Homo sapiens, UniProt P08581); entry: CN1CCN(C(=O)c2ccc(-c3cnc(N)c(OCc4ccc(Cl)cc4Cl)c3)cc2)CC1 [Example I-177]
Output: 6.10

Input: Report measured pIC50 on Met kinase domain (GST fusion protein) (Homo sapiens, UniProt P08581); entry: CC(Oc1nc(-c2ccc(C(=O)NC[C@@H](O)CN3CCOCC3)cc2)cnc1N)c1c(Cl)ccc(F)c1Cl (stereo partly drawn) [II-149]
Output: 6.89

Input: Report measured pIC50 on Met kinase domain (GST fusion protein) (Homo sapiens, UniProt P08581); entry: CC(Oc1nc(-c2cc(C(=O)N3CCN(C)CC3)ccn2)cnc1N)c1c(Cl)ccc(F)c1Cl (stereo not drawn) [II-203]
Output: 6.74

Input: Report measured pIC50 on Met kinase domain (GST fusion protein) (Homo sapiens, UniProt P08581); entry: CC(Oc1nc(-c2ccc(C(=O)N3CCC(N4CCCC4)CC3)cc2)cnc1N)c1c(Cl)ccc(F)c1Cl (stereo not drawn) [II-152]
Output: 6.96

Input: Report measured pIC50 on Met kinase domain (GST fusion protein) (Homo sapiens, UniProt P08581); entry: Nc1ncc(-c2ccccc2)cc1OCc1c(F)ccc(F)c1F [Example I-99]
Output: 5.41

Input: Report measured pIC50 on Met kinase domain (GST fusion protein) (Homo sapiens, UniProt P08581); entry: CC(Oc1nc(-c2cccc(C(=O)N3C[C@@H](C)N[C@@H](C)C3)c2)cnc1N)c1c(Cl)ccc(F)c1Cl (stereo partly drawn) [II-131]
Output: 6.92

Input: Report measured pIC50 on Met kinase domain (GST fusion protein) (Homo sapiens, UniProt P08581); entry: CC(Oc1nc(-c2ccc(NS(=O)(=O)CCN3CCN(C(=O)CO)CC3)cc2)cnc1N)c1c(F)ccc(F)c1Cl (stereo not drawn) [II-120]
Output: 6.72

Input: Report measured pIC50 on Met kinase domain (GST fusion protein) (Homo sapiens, UniProt P08581); entry: CC(Oc1nc(-c2cccc(C(=O)N3CCC(NC4CC4)CC3)c2)cnc1N)c1c(Cl)ccc(F)c1Cl (stereo not drawn) [II-136]
Output: 6.82

Input: Report measured pIC50 on Met kinase domain (GST fusion protein) (Homo sapiens, UniProt P08581); entry: Nc1ncc(-c2ccc(NS(=O)(=O)CCN3CCC[C@H]3CO)cc2)nc1OCc1c(F)ccc(F)c1Cl [II-14]
Output: 5.75
